Experiment: Phase 1 multiple dose trial, plasma pharmacokinetics (Part 2)
Settings: male, human, in vivo, 120 mg
endpoint: half-life (h)
State just the number; it will be interpreted in h.

Query CC(C)(C)c1ccc(-c2nc3ccccc3[nH]2)cc1 yields half-life of 7.7

* * *

Assay: Tissue concentrations (plasma, brain, liver) after single oral dose 25 mg/kg in mice
Format: in vivo
Settings: male, C57BL6/J, mouse, brain, po, 25 mg/kg, 25 mg/kg p.o., 480.0 minutes, average, read-out: concentration in brain
endpoint: concentration at 480 min (ng/mL)
State just the number; it will be interpreted in ng/mL.

Query CC(C)(C)c1ccc(-c2nc3ccccc3[nH]2)cc1 yields concentration at 480 min of 19.8

* * *

Assay: Tissue concentrations (plasma, brain, liver) after single oral dose 25 mg/kg in mice
Type: in vivo
Conditions: male, C57BL6/J, mouse, brain, po, 25 mg/kg, 25 mg/kg p.o., 15.0 minutes, average, read-out: concentration in brain
endpoint: concentration at 15 min (ng/mL)
State just the number; it will be interpreted in ng/mL.

Query CC(C)(C)c1ccc(-c2nc3ccccc3[nH]2)cc1 yields concentration at 15 min of 34.7

* * *

Experiment: Tissue concentrations (plasma, brain, liver) after single oral dose 25 mg/kg in mice
Type: in vivo
Details: male, C57BL6/J, mouse, liver, po, 25 mg/kg, 25 mg/kg p.o., 120.0 minutes, average, read-out: concentration in liver
endpoint: concentration at 120 min (ng/mL)
State just the number; it will be interpreted in ng/mL.

Query CC(C)(C)c1ccc(-c2nc3ccccc3[nH]2)cc1 [TQS-168, 2-(4-tert-butylphenyl)-1H-benzimidazole] yields concentration at 120 min of 1300

* * *

Assay: Plasma concentrations of TQS-168 and TQS-621 after single oral dose 50 mg/kg in mice, three formulations
Format: in vivo
Conditions: male, C57BL/6, mouse, plasma, po, 50 mg/kg, mice, 50 mg/kg p.o., Group 1 (suspension, methylcellulose in PBS), 0.5 hr, mean; read-out: Calculated Concentration in plasma
Experimental: In a second experiment, mice were administered 50 mg/kg TQS-168 by oral gavage. For Group 1, TQS-168 was prepared at a concentration of 5.0 mg/mL in a suspension with […] in PBS. For Group 2, TQS-168 was prepared at a concentration of 5.0 mg/mL as a solution in 10 polyethylene glycol (PEG) 400|30 Kleptose (Roquete)|60% water. […] Plasma concentrations of TQS-168 and TQS-621 were measured overtime.
endpoint: concentration at 0.5 h
Please state the number and follow it with the unit.

Query CC(C)(C)c1ccc(-c2nc3ccccc3[nH]2)cc1 yields concentration at 0.5 h of 949 ng/mL

* * *

Assay: Plasma concentrations of TQS-168 and TQS-621 after single oral dose 50 mg/kg in mice, three formulations
Format: in vivo
Settings: male, C57BL/6, mouse, plasma, po, 50 mg/kg, mice plasma, TQS-168 50 mg/kg p.o., Group 2 (solution, PEG400/Kleptose/water), individual mouse; read-out: Cmax
endpoint: Cmax (ng/mL)
State just the number; it will be interpreted in ng/mL.

Query CC(C)(C)c1ccc(-c2nc3ccccc3[nH]2)cc1 [TQS-168, 2-(4-tert-butylphenyl)-1H-benzimidazole] yields Cmax of 1950

Query CC(C)(C)c1ccc(-c2nc3cc(O)ccc3[nH]2)cc1 [TQS-621] yields Cmax of 487
